Cited source for all entries: PubChem BioAssay AID743117

System: FAAH Selectivity
Assay Details: LYPLA1/LYPLA2 inhibition with serine hydrolase anti-target selectivity, late-stage follow-up, selectivity assay for LYPLA1/LYPLA2 inhibitor project, cell lysate, mouse brain membrane proteome, FP-Rh fluorescence, powders (AID 743117)
Assay Context: gel-based ABPP FP-Rh fluorescence, measured here: FAAH Selectivity, anti-target concentration >50% inhibition, stronger effect = lower value
Measure Name: concentration for >50% inhibition (µM)

I. O=C(ON1C(=O)C2CN(C(=O)c3ccc(Br)cc3)CCN2C1=O)N1CCC(CCc2ccc(Cl)cc2)CC1 (stereo not drawn)
II. O=C(ON1C(=O)C2CN(C(=O)N3CCCC3)CCN2C1=O)N1CCC(CCc2ccc(Cl)cc2)CC1 (stereo not drawn)
III. CC(C)(C)OC(=O)N1CCN2C(=O)N(OC(=O)N3CCN(CCc4ccccc4)CC3)C(=O)C2C1 (stereo not drawn)
Query: List from greatest to least concentration for >50% inhibition. Write the labels, ordered according to the request.
Reply: III, I, II
(III: 100 µM, I: 10 µM, II: 1 µM)
